# self-cleavage annotations
B1: CPEB3 Ribozyme (parent)
chain: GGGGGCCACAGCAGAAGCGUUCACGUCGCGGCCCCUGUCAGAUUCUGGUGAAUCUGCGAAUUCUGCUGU

- Variants of: B1
- experimental_details: self-cleavage, relative activity (ratio to wild type); higher = more cleavage; co-transcriptional
measured_quantity: self-cleavage

> print(dat)
    mutations  measured.quantity  measured.number
 1   G4C U38A      self-cleavage            0.639
 2   C6G G37C      self-cleavage           0.0619
 3  A13C A52C      self-cleavage             0.77
 4  G30U G37A      self-cleavage            0.159
 5  G25C A59U      self-cleavage            0.176
 6  G25U G48U      self-cleavage            0.155
 7  C33G G50A      self-cleavage            0.687
 8  G17C C39G      self-cleavage            0.115
 9   G4C G25U      self-cleavage           0.0499
10  U21A G41U      self-cleavage            0.824
11  C24A C45U      self-cleavage            0.751
12  G11C U36A      self-cleavage           0.0623
13   G5U C63A      self-cleavage            0.114
14   G3C U53C      self-cleavage           0.0464
15  C22U U36C      self-cleavage            0.157
16  C24G U55A      self-cleavage             0.36
17  G31C C66G      self-cleavage            0.155
18   G2C C54U      self-cleavage           0.0485
19  G17A U67A      self-cleavage             0.45
20   G1C C33A      self-cleavage            0.197
21  A16C G50C      self-cleavage            0.301
22   G3A G65A      self-cleavage            0.527
